Assay: Dynamic solubility experiment in water, SGF, FaSSIF, FeSSIF
Format: physicochemical
Settings: simulated gastric fluid (SGF), simulated gastric fluid, thermodynamic from solid; SGF, room temperature, after 1 hour of solid dispersion

COMPOUND: C=CC(=O)Nc1cc(Nc2ncc(F)c(-c3cnn(C)c3)n2)c(OC)cc1N1CCC(N(C)C)CC1 [the free base of compound of formula X]
solubility at 1 h: ≥ 8500 µg/mL

* * *

Test: Solid phase stability experiment (XRPD, HPLC, TGA after one week)
Assay type: physicochemical
Conditions: 40° C./75% RH, unsealed, TGA

COMPOUND: C=CC(=O)Nc1cc(Nc2ncc(F)c(-c3cnn(C)c3)n2)c(OC)cc1N1CCC(N(C)C)CC1.O=C(O)CCCCC(=O)O [crystal form E]
OUTPUT UNIT: %
Weight loss (%): 0.4
//
COMPOUND: C=CC(=O)Nc1cc(Nc2ncc(F)c(-c3cnn(C)c3)n2)c(OC)cc1N1CCC(N(C)C)CC1 [the free base of compound of formula X]
OUTPUT UNIT: %
Weight loss (%): 6.2
//
COMPOUND: C=CC(=O)Nc1cc(Nc2ncc(F)c(-c3cnn(C)c3)n2)c(OC)cc1N1CCC(N(C)C)CC1.Cl [crystal form A]
OUTPUT UNIT: %
Weight loss (%): 3.4
//
COMPOUND: C=CC(=O)Nc1cc(Nc2ncc(F)c(-c3cnn(C)c3)n2)c(OC)cc1N1CCC(N(C)C)CC1.O=P(O)(O)O [crystal form B]
OUTPUT UNIT: %
Weight loss (%): 4.5
//
COMPOUND: C=CC(=O)Nc1cc(Nc2ncc(F)c(-c3cnn(C)c3)n2)c(OC)cc1N1CCC(N(C)C)CC1.O=C(O)/C=C\C(=O)O [crystal form C-1]
OUTPUT UNIT: %
Weight loss (%): 1.3
//
COMPOUND: C=CC(=O)Nc1cc(Nc2ncc(F)c(-c3cnn(C)c3)n2)c(OC)cc1N1CCC(N(C)C)CC1.O=C(O)C[C@H](O)C(=O)O [crystal form D]
OUTPUT UNIT: %
Weight loss (%): 1.2

* * *

Test system: H1975 cells
Test: Cytostatic activity by MTT method, H1975
Format: cell-based
Settings: Homo sapiens, NCI-H1975, 72 h incubation
ENDPOINT: IC50 (nM)

SMILES CODE: C=CC(=O)Nc1cc(Nc2nccc(-c3cn(C)c4ccccc34)n2)c(OC)cc1N(C)CCN(C)C
OUTPUT UNIT: nM
MEASURED: 13

* * *

Test: Dynamic solubility experiment in water, SGF, FaSSIF, FeSSIF
Assay type: physicochemical
Details: feeding state simulated intestinal fluid (FeSSIF), thermodynamic from solid; FeSSIF, room temperature, after 1 hour of solid dispersion
ENDPOINT: solubility at 1 h

COMPOUND: C=CC(=O)Nc1cc(Nc2ncc(F)c(-c3cnn(C)c3)n2)c(OC)cc1N1CCC(N(C)C)CC1 [the free base of compound of formula X]
ENDPOINT: solubility at 1 h
MEASURED: ≥ 10.5 mg/mL

* * *

Listed below: Area under the curve AUC values for each entry.
Test: In vivo test of rats, pharmacokinetics after oral gavage
Set-up: species or system SD rats
Settings: rat; oral gavage 5 mg/kg; plasma

MOLECULE: C=CC(=O)Nc1cc(Nc2ncc(F)c(-c3cnn(C)c3)n2)c(OC)cc1N1CCC(N(C)C)CC1.O=P(O)(O)O [crystal form B]
OUTPUT UNIT: ng·h/mL
Area under the curve AUC: 1265
//
MOLECULE: C=CC(=O)Nc1cc(Nc2ncc(F)c(-c3cnn(C)c3)n2)c(OC)cc1N1CCC(N(C)C)CC1.Cl [crystal form A]
OUTPUT UNIT: ng·h/mL
Area under the curve AUC: 1379
//
MOLECULE: C=CC(=O)Nc1cc(Nc2ncc(F)c(-c3cnn(C)c3)n2)c(OC)cc1N1CCC(N(C)C)CC1.O=C(O)C[C@H](O)C(=O)O [crystal form D]
OUTPUT UNIT: ng·h/mL
Area under the curve AUC: 1202
//
MOLECULE: C=CC(=O)Nc1cc(Nc2ncc(F)c(-c3cnn(C)c3)n2)c(OC)cc1N1CCC(N(C)C)CC1.O=C(O)/C=C\C(=O)O [crystal form C-1]
OUTPUT UNIT: ng·h/mL
Area under the curve AUC: 1233
//
MOLECULE: C=CC(=O)Nc1cc(Nc2ncc(F)c(-c3cnn(C)c3)n2)c(OC)cc1N1CCC(N(C)C)CC1.O=C(O)CCCCC(=O)O [crystal form E]
OUTPUT UNIT: ng·h/mL
Area under the curve AUC: 1660

Data origin, for the record: patent US10561646B2
